Reference source for all entries: paper PMC13626384

Method: PAMPA-BBB permeability assay
Test Parameters: PAMPA, % Recovery, PAMPA-BBB
Examples of molecules with documented recovery follow.
Please state the number and follow it with the unit.

{"columns": ["Molecule", "recovery"],
 "data": [
  ["CC(C)C[C@H](NC(=O)[C@@H]1CS(=O)(=O)CCCCCCCCCC(=O)N[C@@H](C(C)C)C(=O)N1)C(=O)[C@@]1(C)CO1", "77%"],
  ["C[C@@]12OC(=O)[C@]1([C@@H](O)[C@@H]1C=CCCC1)NC(=O)[C@@H]2CCCl [Marizomib, reference compound]", "2%"],
  ["CC(C)C[C@H](NC(=O)[C@@H]1CSCCOCCOCCC(=O)N[C@@H](C(C)C)C(=O)N1)C(=O)[C@@]1(C)CO1", "98%"],
  ["Cn1c(=O)c2[nH]cnc2n(C)c1=O [Theophylline, reference compound]", "96%"]
]}

Note: attention shifts to another entry.
For this molecule ( CC(C)C[C@H](NC(=O)[C@H](CCc1ccccc1)NC(=O)CN1CCOCC1)C(=O)N[C@@H](Cc1ccccc1)C(=O)N[C@@H](CC(C)C)C(=O)[C@@]1(C)CO1 [Carfilzomib, reference compound] ), measured recovery is 41%
